Subject of test: IgE-Tb / FcεRIα-Y131A-AF488 (Homo sapiens, UniProt P01854)
Sequence (P01854 1-427 limits assumed, stated change not applied): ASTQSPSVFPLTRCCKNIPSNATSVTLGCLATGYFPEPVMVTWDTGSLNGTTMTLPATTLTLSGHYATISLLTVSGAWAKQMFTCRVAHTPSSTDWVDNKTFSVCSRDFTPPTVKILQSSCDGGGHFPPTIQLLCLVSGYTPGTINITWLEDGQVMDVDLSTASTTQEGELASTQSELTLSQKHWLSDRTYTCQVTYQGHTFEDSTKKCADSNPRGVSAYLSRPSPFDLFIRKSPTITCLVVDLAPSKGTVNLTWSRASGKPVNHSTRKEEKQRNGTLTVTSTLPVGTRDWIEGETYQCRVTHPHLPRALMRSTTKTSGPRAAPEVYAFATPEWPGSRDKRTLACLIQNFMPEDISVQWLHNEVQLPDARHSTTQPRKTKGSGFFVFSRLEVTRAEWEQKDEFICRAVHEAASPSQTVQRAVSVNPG
Protocol description: IgE-Tb / FcεRIα-Y131A-AF488 FRET assay (protocol for examples 1 to 233)
Experimental setup: examples 1 to 233: 5 nM IgE-Tb, 25 nM FcεRIα-Y131A-AF488, incubated 2 hours at room temperature; read-out: Y131A FRET IC50 range
For each entry below, report its IC50 value.

Please look at this compound and report its IC50: O=C(Nc1sc2c(c1C(=O)N1CCCCC1)CCCC2)C1CC1
1 to 10 µM

Please look at this compound and report its IC50: COc1nn(C)cc1Nc1nncn1[C@H]1CCc2sc(NC(=O)C3CC3)c(C(=O)NCC3CC3)c2C1
< 1 µM

Please look at this compound and report its IC50: CC(=O)Nc1nccn1[C@H]1CCc2sc(NC(=O)C3CC3)c(C(=O)NCC3CC3)c2C1
< 1 µM

Please look at this compound and report its IC50: Cc1cnc(Nc2nncn2C2CCc3sc(NC(=O)C4CC4)c(C(=O)NCC4CC4)c3C2)c(C)n1 (stereo in doubt)
< 1 µM

Please look at this compound and report its IC50: CC(C)CNS(=O)(=O)c1c(NC(=O)C2CC2)sc2c1CC(NS(C)(=O)=O)CC2 (stereo not shown)
< 1 µM

Please look at this compound and report its IC50: CCOC(=O)c1cn([C@H]2CCc3sc(NC(=O)C4CC4)c(C(=O)NCC4CC4)c3C2)cn1
< 1 µM

Please look at this compound and report its IC50: CCNc1nnc(C(F)(F)F)n1C1CCc2sc(NC(=O)C3CC3)c(C(=O)NCC3CC3)c2C1 (stereo not shown)
1 to 10 µM

Please look at this compound and report its IC50: CONC(=NC#N)NC1CCc2sc(NC(=O)C3CC3)c(C(=O)NCC3CC3)c2C1 (stereo not shown)
< 1 µM

Please look at this compound and report its IC50: CCNC(=NC#N)NC1CCc2sc(NC(=O)C3CC3)c(C(=O)NCC3CC3)c2C1 (stereo not shown)
< 1 µM

Please look at this compound and report its IC50: CC(C)C(=O)Nc1sc2c(c1C(=O)NCC1CC1)CCCC2
10 to 50 µM

Please look at this compound and report its IC50: Cn1nc(C(=O)O)cc1Nc1nncn1[C@H]1CCc2sc(NC(=O)C3CC3)c(C(=O)NCC3CC3)c2C1
< 1 µM

Please look at this compound and report its IC50: Cc1cc(Nc2nncn2C2CCc3sc(NC(=O)C4CC4)c(C(=O)NCC(C)(C)F)c3C2)n(C)n1 (stereo not shown)
< 1 µM

Please look at this compound and report its IC50: CCNC(=NC#N)N(C)[C@H]1CCc2sc(NC(=O)C3CC3)c(C(=O)NCC3CC3)c2C1
< 1 µM

Please look at this compound and report its IC50: Cn1nc(C(F)F)cc1Nc1nncn1[C@H]1CCc2sc(NC(=O)C3CC3)c(C(=O)NCC3CC3)c2C1
< 1 µM

Please look at this compound and report its IC50: O=C(NCC1CC1)c1c(NC(=O)C2CC2)sc2c1CC(Nc1nc3ccccc3[nH]1)CC2 (stereo not shown)
< 1 µM

Please look at this compound and report its IC50: CCn1nc(C)cc1Nc1nncn1[C@H]1CCc2sc(NC(=O)C3CC3)c(C(=O)NCC3CC3)c2C1
< 1 µM
